Molecular target: T1, Rae1(31-368)-Nup98(157-213) heterodimer (human, UniProt P78406 31-368; P52948 157-213)
T1 construct: also called Rae1-Nup98; Rae1-Nup98 complex
T1 sequence (P78406 31-368, chain 1 of 2): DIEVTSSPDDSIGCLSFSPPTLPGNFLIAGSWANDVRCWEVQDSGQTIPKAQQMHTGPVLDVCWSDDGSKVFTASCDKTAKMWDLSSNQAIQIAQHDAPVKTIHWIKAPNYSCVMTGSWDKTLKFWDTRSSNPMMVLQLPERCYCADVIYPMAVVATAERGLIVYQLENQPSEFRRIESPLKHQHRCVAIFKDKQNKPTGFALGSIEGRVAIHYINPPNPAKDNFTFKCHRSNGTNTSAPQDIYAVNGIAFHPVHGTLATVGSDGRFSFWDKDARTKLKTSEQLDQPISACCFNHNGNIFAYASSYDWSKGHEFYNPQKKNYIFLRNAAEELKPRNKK
T1 sequence (P52948 157-213, chain 2 of 2): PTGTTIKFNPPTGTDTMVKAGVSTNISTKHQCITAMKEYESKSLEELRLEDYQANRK
Assay: ITC
Conditions: both partners purified
Quick list: Ka per entry.

- Binder: "YSQLDEAQPMEID (source: synthetic peptide) [SARS-CoV-2 ORF6-E55A]"
  Ka [M⁻¹]: "1.75e+06"
- Binder: "YSQLDAEQPMEID (source: synthetic peptide) [SARS-CoV-2 ORF6-E54A]"
  Ka [M⁻¹]: "1.72e+06"
- Binder: "YSQLDEEEPMEID (source: synthetic peptide) [SARS-CoV-2 ORF6-Q56E]"
  Ka [M⁻¹]: "2.08e+07"
- Binder: "YSQLAEEQPMEID (source: synthetic peptide) [SARS-CoV-2 ORF6-D53A]"
  Ka [M⁻¹]: 863000
